experiment: Half life in dog at 2.5 mg/kg, iv; assay type: ADME, organism-based, Canis lupus familiaris; conditions: in vivo
Property label: half-life (h)

compound="O=C1CCC(N2Cc3c(C#CC4CCN(C(=O)[C@H]5CC[C@H](NC(=O)[C@@H]6NC7(CCCCC7)[C@@]7(C(=O)Nc8cc(Cl)ccc87)[C@H]6c6cccc(Cl)c6F)CC5)CC4)cccc3C2=O)C(=O)N1 (stereo partly specified)" units_of_measure=h data_value=6.3

* * *

assay: Half life in rat at 5 mg/kg, iv; format: ADME, organism-based; details: in vivo
Property label: half-life (h)

compound="O=C1CCC(N2Cc3c(C#CC4CCN(C(=O)[C@H]5CC[C@H](NC(=O)[C@@H]6NC7(CCCCC7)[C@@]7(C(=O)Nc8cc(Cl)ccc87)[C@H]6c6cccc(Cl)c6F)CC5)CC4)cccc3C2=O)C(=O)N1 (stereo partly specified)" units_of_measure=h data_value=5.6

* * *

assay: Volume of distribution at steady state in rat at 5 mg/kg, iv; type: ADME, organism-based; settings: in vivo, read-out: Vdss
Property label: Vd (L/kg)

compound="O=C1CCC(N2Cc3c(C#CC4CCN(C(=O)[C@H]5CC[C@H](NC(=O)[C@@H]6NC7(CCCCC7)[C@@]7(C(=O)Nc8cc(Cl)ccc87)[C@H]6c6cccc(Cl)c6F)CC5)CC4)cccc3C2=O)C(=O)N1 (stereo partly specified)" property_label=Vd units_of_measure=L/kg data_value=0.15

* * *

assay: AUC (0 to t) in rat at 5 mg/kg, iv; type: ADME, organism-based; conditions: in vivo
Property label: AUC(0-t)

molecule="O=C1CCC(N2Cc3c(C#CC4CCN(C(=O)[C@H]5CC[C@H](NC(=O)[C@@H]6NC7(CCCCC7)[C@@]7(C(=O)Nc8cc(Cl)ccc87)[C@H]6c6cccc(Cl)c6F)CC5)CC4)cccc3C2=O)C(=O)N1 (stereo partly specified)" data_value="13 µg·h/mL"

* * *

assay: Clearance in mouse at 10 mg/kg, iv; assay type: ADME, organism-based; conditions: in vivo
Property label: clearance (mL/min/kg)

molecule="O=C1CCC(N2Cc3c(C#CC4CCN(C(=O)[C@H]5CC[C@H](NC(=O)[C@@H]6NC7(CCCCC7)[C@@]7(C(=O)Nc8cc(Cl)ccc87)[C@H]6c6cccc(Cl)c6F)CC5)CC4)cccc3C2=O)C(=O)N1 (stereo partly specified)" property_label=clearance data_value=1.1

* * *

test system: RS4-11; experiment: Antiproliferative activity against human RS4;11 cells assessed as inhibition of cell growth measured after 4 days by WST-8 assay; type: functional, cell-based; details: RS4-11, 96 h
Listed here are compounds together with their documented IC50.
Property label: IC50 (nM)

compound=O=C(N[C@H]1CC[C@H](C(=O)O)CC1)[C@@H]1NC2(CCCCC2)[C@@]2(C(=O)Nc3cc(Cl)ccc32)[C@H]1c1cccc(Cl)c1F property_label=IC50 data_value=179
compound="O=C1CCC(N2Cc3c(C#CCCCNC(=O)[C@H]4CC[C@H](NC(=O)[C@@H]5NC6(CCCCC6)[C@@]6(C(=O)Nc7cc(Cl)ccc76)[C@H]5c5cccc(Cl)c5F)CC4)cccc3C2=O)C(=O)N1 (stereo not given in full)" property_label=IC50 data_value=1
compound="O=C1CCC(N2Cc3c(C#CC4CCN(C(=O)c5ccc(NC(=O)[C@@H]6NC7(CCCCC7)[C@@]7(C(=O)Nc8cc(Cl)ccc87)[C@H]6c6cccc(Cl)c6F)cc5)CC4)cccc3C2=O)C(=O)N1 (stereo not given in full)" property_label=IC50 data_value=3
compound="O=C1CCC(N2Cc3c(C#CCCCNC(=O)c4ccc(NC(=O)[C@@H]5NC6(CCCCC6)[C@@]6(C(=O)Nc7cc(Cl)ccc76)[C@H]5c5cccc(Cl)c5F)cc4)cccc3C2=O)C(=O)N1 (stereo not given in full)" property_label=IC50 data_value=2
compound="O=C1CCC(N2Cc3c(C#CC4CCN(C(=O)[C@H]5CC[C@H](NC(=O)[C@@H]6NC7(CCCCC7)[C@@]7(C(=O)Nc8cc(Cl)ccc87)[C@H]6c6cccc(Cl)c6F)CC5)CC4)cccc3C2=O)C(=O)N1 (stereo not given in full)" property_label=IC50 data_value=0.7
